Record form. Attribute: CC50 at 72 h. Fill in for each entry.
- test.details: Cytotoxicity against cat CRFK cells incubated for 72 hrs by CytoTox 96 analysis
- Assay type: toxicity, cell-based, Felis catus

Give CC50 at 72 h for each of the items listed below.
1. CC(C)C[C@H](NC(=O)OC[C@@H]1CCC(=O)N1Cc1cccc(F)c1)C(=O)N[C@H](C=O)C[C@@H]1CCNC1=O
2. CC(C)C[C@H](NC(=O)OCC1CCN(Cc2ccco2)C1=O)C(=O)N[C@H](C=O)C[C@@H]1CCNC1=O (some centres undefined)
3. CC(C)C[C@H](NC(=O)OC[C@@H]1CCC(=O)N1C[C@H]1C[C@@H]2CC[C@H]1C2)C(=O)N[C@@H](C[C@@H]1CCNC1=O)C(O)S(=O)(=O)O (some centres undefined)

*A*
["> 50 µM", "> 50 µM", "> 50 µM"]

====

- System: SARS-CoV-2
- test.details: Antiviral activity against SARS CoV-2 Wuhan-Hu-1 infected in HEK293T cells incubated for 24 hrs
- Type: functional, organism-based
- test.conditions: Severe acute respiratory syndrome coronavirus 2, Wuhan-Hu-1, HEK-293T
assay.metric: pEC50
Give bare numbers, as −log10 of the molar value.

CC(C)C[C@H](NC(=O)OC[C@@H]1CCC(=O)N1Cc1ccc2c(c1)OC(F)(F)O2)C(=O)N[C@H](C=O)C[C@@H]1CCNC1=O : 6.29
CC(C)C[C@H](NC(=O)OCC1CC(=O)N(CC2CC3C=CC2C3)C1)C(=O)N[C@H](C=O)C[C@@H]1CCNC1=O (some centres undefined) : 6.55
CC(C)C[C@H](NC(=O)OC[C@@H]1CCC(=O)N1Cc1cccc(C(F)(F)F)c1)C(=O)N[C@@H](C[C@@H]1CCNC1=O)C(O)S(=O)(=O)O (some centres undefined) : 6.31

Then this compound:
*Q* Give pEC50 for the following compound: CC(C)C[C@H](NC(=O)OCC1CCN(CC2CCCCC2)C1=O)C(=O)N[C@@H](C[C@@H]1CCNC1=O)C(O)S(=O)(=O)O (some centres undefined)
*A* 7.70

====

- assay.system: Replicase polyprotein 1ab (Severe acute respiratory syndrome coronavirus 2, UniProt P0DTD1)
assay.metric: IC50 (µM)
Numbers only, in µM.

CC(C)C[C@H](NC(=O)OCC1CC(=O)N(CC2CC3CCC2C3)C1)C(=O)N[C@@H](C[C@@H]1CCNC1=O)C(O)S(=O)(=O)O (some centres undefined) : 0.17
CC(C)C[C@H](NC(=O)OCC1CC(=O)N(Cc2ccco2)C1)C(=O)N[C@@H](C[C@@H]1CCNC1=O)C(O)S(=O)(=O)O (some centres undefined) : 0.56
CC(C)C[C@H](NC(=O)OC[C@@H]1CCC(=O)N1Cc1cccc(F)c1)C(=O)N[C@@H](C[C@@H]1CCNC1=O)C(O)S(=O)(=O)O (some centres undefined) : 0.16

Below are 3 compounds. Give each one its IC50.
1. CC(C)C[C@H](NC(=O)OC[C@@H]1CCC(=O)N1CCC1CCCCC1)C(=O)N[C@H](C=O)C[C@@H]1CCNC1=O
2. CC(C)C[C@H](NC(=O)OC[C@@H]1CCC(=O)N1Cc1cccc(Cl)c1)C(=O)N[C@@H](C[C@@H]1CCNC1=O)C(O)S(=O)(=O)O (some centres undefined)
3. CC(C)C[C@H](NC(=O)OCC1CC(=O)N(CC2CC3C=CC2C3)C1)C(=O)N[C@H](C=O)C[C@@H]1CCNC1=O (some centres undefined)

*A*
[0.5, 0.1, 0.19]
